assay: soluble on expression in E. coli; label from the status in PepcDB or PDB records
experimental readout: soluble on expression in E. coli

- MASKVYDPEQRKRMITGPQWWARCKQMNVLDSFINYYDSEKHAENAVIFLHGNATSSYLWRHVVPHIEPVARCIIPDLIGMGKSGKSGNGSYRLLDHYKYLTAWFELLNLPKKIIFVGHDWGAALAFHYAYEHQDRIKAIVHMESVVDVIESWDEWPDIEEDIALIKSEEGEKMVLENNFFVETVLPSKIMRKLEPEEFAAYLEPFKEKGEVRRPTLSWPREIPLVKGGKPDVVQIVRNYNAYLRASDDLPKLFIESDPGFFSNAIVEGAKKFPNTEFVKVKGLHFLQEDAPDEMGKYIKSFVERVLKNEQVDHHHHHH: soluble
- GRRDNLIVGLDIGTTKICAIVGNVTEDGIDIVGIGTSPSRGMRKGVVINIESTVESIKKAVSEAELMAGCDIRSVYAGIAGGHIKGINSQGVIAIKNREVSSEDVKRVIDAAKAIAIPMDR: not soluble
- MDYRQLHRWDLPPEEAIKVQNELRKKIKLTPYEGEPEYVAGVDLSFPGKEEGLAVIVVLEYPSFKILEVVSERGEITFPYIPGLLAFREGPLFLKAWEKLRTKPDVVVFDGQGLAHPRKLGIASHMGLFIEIPTIGVAKSRLYGTFKMPEDKRCSWSYLYDGEEIIGCVIRTKEGSAPIFVSPGHLMDVESSKRLIKAFTLPGRRIPEPTRLAHIYTQRLKKGLFLEHHHHHH: soluble
- MPSPSPKGLPVKQYAVQSQLPVYEWPDVGSGEYDVGVVASFGRLLNEALILKFPYGILNVHPSCLPRWRGPAPVIHTVLHGDTVTGVTIMQIRPKRFDVGPILKQETVPVPPKSTAKELEAVLSRLGANMLISVLKNLPESLSNGRQQPMEGATYAPKISAGTSCIKWEEQTSEQIFRLYRAIGNIIPLQTLWMANTIKLLDLVEVNSSVLADPKLTGQALIPGSVIYHKQSQILLVYCKDGWIGVRSVMLKKSLTATDFYNGYLHPWYQKNSQAQPSQCRFQTLRLPTKKKQKKTVAMQQCIE: soluble
- MDKIHAMQLFIRVADLESFSRAAETLALPKGSVSRQIQALESHLGVRLLHRTTRRVQLTQDGMVYYERAKDLLSNLDELDGMFQHDPASISGRLRVDMPVGFAKKMVIPHLPTFLQQYPGIELELSSSDRQVDVIREGFDCVVRVGALKDSGLIARPLGKLTQINCASPDYLARFGYPQSLEDLADHALIHYASTLGVRPPGFEVMIDGAVRWVKTGGILTVNSTETYQAACIAGLGIIQVPRTGVREALRAGDLIEILPQYRAEPLPVSLIYPHRRNLSRRVNLFMEWLGGLMKAYVD: not soluble

Field: next sequence
Record request: soluble on expression in E. coli value, item MKVIIDGEVRTLKAAWYEDGEVKLIDQRELPDKIKIFSAKNSDDIAYAIKNMVVRGAPAIGVTAAYGLAMASKNGEDMNKAKEKIRATRPTAYDLFKAIRYMEVNGYDMNAARRYAMEIEGRSKKIGELGNELIRNGAKILTHCNAGALAVLDWGTALSPMRIAHNEGKNIFVFVDETRPRLQGAKLTAWELAQEGIDHAIIADNAAGFYMRRKEIDLVIVGADRIASNGDFANKIGTYEKAVLAKVNGIPFYVAAPGSTFDFSIRSGDEIPIEERDENEVLEINGIRIGPNESHSKNPAFDVTPNEYVTGFITEYGIFKPNELNKLKDLMDKDLFMNIK
not soluble

Reference source for all entries: the DeepSol protein solubility set
